# assay.explanation: NCI Yeast Anticancer Drug Screen. Data for the mec2-1 strain (AID 157)
# assay.setup: S. cerevisiae mec2-1 strain, at 50.0 µM, stronger effect = higher value
The panel holds about 79,000 compounds, 15% with a hit somewhere; the sample as a whole holds those more often.
Reported growth inhibition values for a set of compounds
Give the value, in units of %, as a plain number.

Solved entries:
CC(=O)Nc1ccc(-c2ccccc2)cc1[N+](=O)[O-]; 16.6
Nc1nc(=Nc2ccccc2)ss1; 71.1
Oc1cc(Cc2ccccc2)c(Cc2ccccc2)cc1O; 91
NC(=S)C1CCC(C2CCCCC2)CC1 (configuration not stated); 94.8
CCCCCCCCCCCCCCCC(=O)NCCN(C)C; 97
O=[N+]([O-])c1cccc(S(=O)(=O)Nc2cccc3ccccc23)c1; 99.2
Cc1cc(=O)c2cc(N=Cc3ccc([N+](=O)[O-])o3)ccc2o1; 17.9
Cc1nc2c(Cl)cccc2c2ccccc12; 85.7
Clc1ccc(CSc2ncnc3c2ncn3C2CCCCO2)cc1 (configuration not stated); 97.5
O=C1c2ccc(O)cc2C(=O)c2c1ccc(O)c2O; 67.3

Exam item: Field request: growth inhibition | item: CCC(CC)N(CCNc1cc(OC)cc2cccnc12)CC(C)C
Marked response: 26

Exam item: O=C(NC(Cc1ccc(I)cc1)C(=O)O)c1cccc(Br)c1 (configuration not stated) ?
Marked response: -35

Exam item: What do you get for CC[n+]1c(/C=C/c2ccc(N(C)C)cc2)ccc2ccccc21 ?
Marked response: 99.2

Exam item: Follow-up entry: O=C(/C=C/c1ccccc1)c1ccc(NCc2nc3ccccc3[nH]2)cc1
Marked response: 77

----------
# assay.explanation: NCI Yeast Anticancer Drug Screen. Data for the sgs1 mgt1 strain (AID 161);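 also: 0% = growth of cultures given vehicle only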
# assay.setup: S. cerevisiae sgs1 mgt1 strain, at 50.0 µM (retest, dose inferred, filed as 5.0)
This is part of a sample that, as a whole, favours compounds with a hit. Of some 79,000 tested, about 15% had one in any assay. Active and inactive are the calls of the source. No stated cut-off is given here; in the data, active means growth inhibition above about 70%; inactive means the rest.
Field 'call' accepts 1 = active, -1 = inactive

Here's what some known entries look like.
CCCCCCSC(=Cc1cccc[n+]1C)SCCCCCC; 1
Nc1ccc(/C=C2/c3ccccc3-c3nc4ccccc4cc32)cc1; 1
Cc1ccc2c(c1)C(O)(c1ccccc1)CCS2 (stereo unspecified); 1

Okay, next one:
Exam item: Any idea what this test logged for Nc1ccc(SC23CC4CC(CC(C4)C2)C3)cc1 ?
Marked response: 1

----------
# assay.explanation: NCI Yeast Anticancer Drug Screen. Data for the rad50 strain (AID 155);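 also: 0% = growth of vehicle-only cultures of the same strain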
# assay.setup: S. cerevisiae rad50 strain growth inhibition; at 50.0 µM
Compounds without any hit were thinned out: in the full panel of roughly 79,000, 15% have a hit. Active and inactive are the calls of the source. Rule as the data show it: active = growth inhibition above about 70%; inactive = the rest.
Answer with one of the outcomes yes = active, no = inactive

Solved cases below.
O=C(CCCCOCCCCC(=O)OCC1CCCO1)OCC1CCCO1 (configuration not stated); no
N#CC12CCCC(=O)N1c1ccccc1S2 (configuration not stated); no
Oc1cc(-[n+]2ccc3ccccc3c2)c(O)c2ccccc12; no

Exam item: Call for entry NC(=O)SCC(=O)Nc1ccccc1 :
Marked response: yes

Exam item: How about this compound: COC(=O)C(=O)N(c1cc(C)ccc1C)c1cc(C)ccc1C
Marked response: yes

Exam item: Moving on to the next compound: CCOC(=O)/C(=C\c1cccc(Br)c1)C(C)=O
Marked response: yes

Exam item: Now this one: Cc1nc(-c2ccc(N=Cc3ccc(N(CCOS(C)(=O)=O)CCOS(C)(=O)=O)cc3)cc2)cs1
Marked response: no

----------
Below is a list of entries, each paired with its recorded growth inhibition value.
# assay.explanation: NCI Yeast Anticancer Drug Screen. Data for the mlh1 rad18 strain (AID 175)
# assay.setup: S. cerevisiae mlh1 rad18 strain growth inhibition; at 50.0 µM; stronger effect = higher value
This is part of a sample that, as a whole, favours compounds with a hit. Of some 79,000 tested, about 15% had one in any assay.
Just the number in %, nothing appended.

Illustrative cases are given below, each with its answer.
N#CC(C(=O)CCCC(=O)Nc1ccc(Cl)cc1)c1ccccc1Cl (configuration not stated); 96.7
Cn1ncc2c(Nc3cccc(Cl)c3)nc(Nc3cccc(Cl)c3)nc21; 95.7
C=CCOc1ccc(C2(c3ccc(OCC=C)cc3)C(=O)Nc3ccccc32)cc1; 86.6
CCOC(=O)CC1(C)C(=O)CCCC1=O; -1
O=C(O)/C(Cl)=C(\Cl)C(=O)Nc1c(Cl)cccc1Cl; 16.1

Exam item: Name the reported growth inhibition value associated with the compound O=C(Nc1ccccc1C(=O)O)c1ccccc1
Marked response: 78.2

Exam item: Can you check CC(CCl)OC(=O)Nc1cccc(C(F)(F)F)c1 (configuration not stated) next?
Marked response: 73

Exam item: Same question, CCOC(=O)Nc1cc2c(c(N)n1)N=C(c1ccccc1)CN2 this time
Marked response: 18.1

Exam item: Try the compound CCc1nc(N)nc(N)c1-c1ccc(NCCCN)c([N+](=O)[O-])c1
Marked response: 82.5

Exam item: Field entry: Clc1nn2nnnc2c2ccccc12
Marked response: 73.8

Exam item: And what about the compound O=C(O)c1ccccc1-c1c2cc(I)c(=O)c(I)c-2oc2c(I)c(O)c(I)cc12 ?
Marked response: 98.8

Exam item: Another compound: CCOC(=O)C(=N\Nc1c(C)cccc1C)/C(C)=N\NC(N)=S
Marked response: 69.2

----------
# assay.explanation: NCI Yeast Anticancer Drug Screen. Data for the mlh1 rad18 strain (AID 175)
# assay.setup: S. cerevisiae mlh1 rad18 strain growth inhibition; at 50.0 µM; stronger effect = higher value
Compounds without any hit were thinned out: in the full panel of roughly 79,000, 15% have a hit.
Give Fulfilled when the value for growth inhibition is at least 90%. Give Not fulfilled when it is less.

CCO/C=C1N=C(/C=C/c2ccccc2Cl)OC/1=O; Not fulfilled
COc1ccc(OC)c(NC(=O)CCCC(=O)CC(=O)c2cccnc2)c1; Not fulfilled
CC(=O)Oc1cc(Cl)ccc1Cc1ccc(Cl)cc1OC(C)=O; Fulfilled
CSC(=S)NN=C(c1ccccc1)c1ccccc1; Not fulfilled
O=C(Cc1ccccc1)c1ccccc1C(=O)NNc1ccccc1; Not fulfilled

Exam item: Textbook exercise: given the entry Cc1c(O)/c(=C\O)c2nc3c(=O)ccc(C(=O)NCCN(C)C)c3[nH]c2c1=O , state whether its growth inhibition is greater than or equal to 90%.
Marked response: Not fulfilled

Exam item: And then COC(=O)/C(C#N)=C(/SC)N(C)C , what is it?
Marked response: Not fulfilled

Exam item: Check COc1cc(/C=C/C(=O)c2ccc(O)c(OC)c2)ccc1O too.
Marked response: Not fulfilled

Exam item: Next entry: Cc1cc2c(cc1C)[n+]([O-])c(-c1c(Cl)cccc1Cl)c(N)[n+]2[O-]
Marked response: Fulfilled

----------
# assay.explanation: NCI Yeast Anticancer Drug Screen. Data for the cln2 rad14 strain (AID 165);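 also: 0% = growth equal to vehicle treated cultures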
# assay.setup: S. cerevisiae cln2 rad14 strain, at 5.0 µM (retest, dose inferred, filed as 0.5), stronger effect = higher value
Compounds without any hit were thinned out: in the full panel of roughly 79,000, 15% have a hit.
Collected growth inhibition values appear next to each entry.
Form entry: value (%) — number only.

Below: 2 compounds and their reported growth inhibition.
CCCCC(CCCC)=NNC(=S)SC; -3
NCCNC[Si](c1ccccc1)(c1ccccc1)c1ccccc1; -4

Exam item: So what does the record say about growth inhibition for COc1ccccc1/C=C/c1ccnc2ccccc12 ?
Marked response: 13

Exam item: And for S=C(Nc1ccccn1)c1ccccn1 ?
Marked response: -11

----------
# assay.explanation: NCI Yeast Anticancer Drug Screen. Data for the sgs1 mgt1 strain (AID 161);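 also: 0% = growth of cultures given vehicle only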
# assay.setup: S. cerevisiae sgs1 mgt1 strain, at 50.0 µM, stronger effect = higher value
The panel holds about 79,000 compounds, 15% with a hit somewhere; the sample as a whole holds those more often. Active and inactive are the calls of the source. No stated cut-off is given here; in the data, active means growth inhibition above about 70%; inactive means the rest.
reported.property: growth inhibition

Look over these answered cases.
COc1cc2c(c(C)c1O)[C@H]1COc3ccccc3[C@H]1O2; 89.9% (active)
O=C1NC(=O)C(Cc2ccccc2)(Cc2ccccc2)S1; 99.3% (active)
CC[n+]1ccc(Nc2ccc(NC(=O)c3ccc(C(=O)Nc4ccc(Nc5cc[n+](CC)c(N)n5)cc4)cc3)cc2)nc1N; 99% (active)
COc1ccc(C2C3C(=O)OCCOC(=O)C3C2c2ccc(OC)c(OC)c2)cc1OC (centres undefined); 14.2% (inactive)
CC(=Nc1ccc(S(=O)(=O)c2ccc(N=C(C)N3CCCCC3)cc2)cc1)N1CCCCC1; -6.45% (inactive)
O=C1OC(C2OC(=O)C(=O)C2C(=O)c2ccc(Cl)cc2)C(C(=O)c2ccc(Cl)cc2)C1=O (centres undefined); 30.5% (inactive)

Exam item: Entry CCOC(=O)C(NC(=O)c1ccccc1)[CH](c1ccc(OC)cc1)[Sn]([c]1ccccc1)([c]1ccccc1)[c]1ccccc1 (centres undefined) : reported growth inhibition = ?
Marked response: 79.2% (active)

Exam item: Quick one: CCOC(=O)CC(O)(CCc1ccccc1)c1ccccc1 (centres undefined)
Marked response: -2.1% (inactive)

Exam item: Next compound up: O=[N+]([O-])c1cccc(S(=O)(=O)Nc2cccc3ccccc23)c1
Marked response: 99.2% (active)
